Molecular target: PI3Kβ (Homo sapiens (Human), UniProt P42338)
Sequence (P42338 whole entry, canonical isoform): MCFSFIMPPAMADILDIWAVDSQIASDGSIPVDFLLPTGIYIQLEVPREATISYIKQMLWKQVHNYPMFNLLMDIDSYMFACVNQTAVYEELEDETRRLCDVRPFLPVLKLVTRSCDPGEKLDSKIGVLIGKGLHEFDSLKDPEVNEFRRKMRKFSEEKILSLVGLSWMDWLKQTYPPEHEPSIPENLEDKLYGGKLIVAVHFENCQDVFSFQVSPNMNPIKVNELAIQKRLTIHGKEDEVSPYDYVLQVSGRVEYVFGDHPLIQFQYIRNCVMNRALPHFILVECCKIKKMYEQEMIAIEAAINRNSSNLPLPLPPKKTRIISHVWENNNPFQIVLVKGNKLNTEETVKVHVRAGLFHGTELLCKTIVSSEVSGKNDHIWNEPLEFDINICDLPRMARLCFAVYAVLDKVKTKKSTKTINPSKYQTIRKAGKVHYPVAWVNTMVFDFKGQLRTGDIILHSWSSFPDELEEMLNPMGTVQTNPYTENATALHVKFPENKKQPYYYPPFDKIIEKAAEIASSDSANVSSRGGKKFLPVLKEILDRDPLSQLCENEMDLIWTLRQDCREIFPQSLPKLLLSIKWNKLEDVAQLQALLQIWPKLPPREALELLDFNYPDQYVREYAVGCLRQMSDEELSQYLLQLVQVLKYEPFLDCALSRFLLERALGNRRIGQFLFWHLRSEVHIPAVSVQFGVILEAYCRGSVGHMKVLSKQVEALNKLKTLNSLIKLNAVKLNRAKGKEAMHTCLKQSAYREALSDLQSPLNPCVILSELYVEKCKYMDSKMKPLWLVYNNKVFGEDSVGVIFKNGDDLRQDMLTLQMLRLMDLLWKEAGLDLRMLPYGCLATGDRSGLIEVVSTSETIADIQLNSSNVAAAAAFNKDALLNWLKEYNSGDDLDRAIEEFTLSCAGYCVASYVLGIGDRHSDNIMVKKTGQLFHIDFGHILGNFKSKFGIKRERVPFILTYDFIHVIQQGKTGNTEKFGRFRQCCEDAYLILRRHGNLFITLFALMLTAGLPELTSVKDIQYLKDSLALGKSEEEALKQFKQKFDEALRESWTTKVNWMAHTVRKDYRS
Sequence (P27986 whole entry partner, canonical isoform): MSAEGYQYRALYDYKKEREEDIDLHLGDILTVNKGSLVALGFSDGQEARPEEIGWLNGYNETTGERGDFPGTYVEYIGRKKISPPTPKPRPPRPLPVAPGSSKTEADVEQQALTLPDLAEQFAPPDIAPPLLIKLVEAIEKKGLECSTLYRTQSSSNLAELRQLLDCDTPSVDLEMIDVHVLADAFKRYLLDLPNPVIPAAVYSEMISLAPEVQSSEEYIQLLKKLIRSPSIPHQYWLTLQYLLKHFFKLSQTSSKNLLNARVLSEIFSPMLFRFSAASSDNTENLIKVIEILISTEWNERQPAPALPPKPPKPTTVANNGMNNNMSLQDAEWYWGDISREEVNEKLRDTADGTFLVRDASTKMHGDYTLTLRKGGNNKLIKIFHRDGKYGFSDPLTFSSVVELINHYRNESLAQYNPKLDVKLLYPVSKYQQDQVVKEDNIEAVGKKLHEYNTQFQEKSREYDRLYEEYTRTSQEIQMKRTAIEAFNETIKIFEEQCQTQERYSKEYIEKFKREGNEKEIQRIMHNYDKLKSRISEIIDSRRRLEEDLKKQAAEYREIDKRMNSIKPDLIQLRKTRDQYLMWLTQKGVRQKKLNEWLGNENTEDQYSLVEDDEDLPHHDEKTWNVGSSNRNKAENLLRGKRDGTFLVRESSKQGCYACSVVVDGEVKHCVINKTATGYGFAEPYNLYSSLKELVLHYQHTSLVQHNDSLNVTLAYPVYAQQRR
Test: TR-FRET enzymatic activity assay against PI3K isoforms
Settings: PI3Kβ, TR-FRET, 2×Km ATP, 30 minutes at 25° C.
pIC50: −log10 of the molar value.
# key: entry, value: pIC50

# molecule, targetSystem, pIC50
measured = [
    ("NCCCn1c([C@@H](Nc2ncnc3ccc(Cl)nc23)C2CC2)nc2cccc(Cl)c2c1=O", "PI3Kβ (Homo sapiens (Human), UniProt P42338)", 8.40),
    ("C[C@H](Nc1nc(N)nc(N)c1C#N)c1nc2cccc(Cl)c2c(=O)n1CCN1CCCC1", "PI3Kβ (Homo sapiens (Human), UniProt P42338)", 6.12),
    ("C[C@H](Nc1nc(N)nc(N)c1C#N)c1nc2cccc(Cl)c2c(=O)n1CC1CCCNC1 (stereo in doubt) [Compound 124]", "PI3Kβ (Homo sapiens (Human), UniProt P42338)", 7.06),
    ("C[C@H](Nc1nc(N)nc(N)c1C#N)c1nc2cccc(Cl)c2c(=O)n1N(C)CCN [Compound 14]", "PI3Kβ (Homo sapiens (Human), UniProt P42338)", 8.05),
    ("COC(C)(C)CCn1c([C@H](C)Nc2nc(N)nc(N)c2C#N)nc2cccc(Cl)c2c1=O", "PI3Kβ (Homo sapiens (Human), UniProt P42338)", 6.54),
    ("C[C@H](Nc1ncnc(N)c1C#N)c1nc2cccc(Cl)c2c(=O)n1CCCN1CCN(C)CC1", "PI3Kβ (Homo sapiens (Human), UniProt P42338)", 6.19),
    ("C[C@H](Nc1nc(N)nc(N)c1C#N)c1nc2cccc(Cl)c2c(=O)n1CCCN(C)Cc1ccccc1", "PI3Kβ (Homo sapiens (Human), UniProt P42338)", 6.82),
    ("C[C@H](Nc1ncnc(N)c1C#N)c1nc2cccc(Cl)c2c(=O)n1CC1CCNC1 (some centres unmarked)", "PI3Kβ (Homo sapiens (Human), UniProt P42338)", 7.27),
]

====

Biological target: PI3Kγ (Homo sapiens (Human), UniProt P48736)
Sequence (P48736 whole entry, canonical isoform): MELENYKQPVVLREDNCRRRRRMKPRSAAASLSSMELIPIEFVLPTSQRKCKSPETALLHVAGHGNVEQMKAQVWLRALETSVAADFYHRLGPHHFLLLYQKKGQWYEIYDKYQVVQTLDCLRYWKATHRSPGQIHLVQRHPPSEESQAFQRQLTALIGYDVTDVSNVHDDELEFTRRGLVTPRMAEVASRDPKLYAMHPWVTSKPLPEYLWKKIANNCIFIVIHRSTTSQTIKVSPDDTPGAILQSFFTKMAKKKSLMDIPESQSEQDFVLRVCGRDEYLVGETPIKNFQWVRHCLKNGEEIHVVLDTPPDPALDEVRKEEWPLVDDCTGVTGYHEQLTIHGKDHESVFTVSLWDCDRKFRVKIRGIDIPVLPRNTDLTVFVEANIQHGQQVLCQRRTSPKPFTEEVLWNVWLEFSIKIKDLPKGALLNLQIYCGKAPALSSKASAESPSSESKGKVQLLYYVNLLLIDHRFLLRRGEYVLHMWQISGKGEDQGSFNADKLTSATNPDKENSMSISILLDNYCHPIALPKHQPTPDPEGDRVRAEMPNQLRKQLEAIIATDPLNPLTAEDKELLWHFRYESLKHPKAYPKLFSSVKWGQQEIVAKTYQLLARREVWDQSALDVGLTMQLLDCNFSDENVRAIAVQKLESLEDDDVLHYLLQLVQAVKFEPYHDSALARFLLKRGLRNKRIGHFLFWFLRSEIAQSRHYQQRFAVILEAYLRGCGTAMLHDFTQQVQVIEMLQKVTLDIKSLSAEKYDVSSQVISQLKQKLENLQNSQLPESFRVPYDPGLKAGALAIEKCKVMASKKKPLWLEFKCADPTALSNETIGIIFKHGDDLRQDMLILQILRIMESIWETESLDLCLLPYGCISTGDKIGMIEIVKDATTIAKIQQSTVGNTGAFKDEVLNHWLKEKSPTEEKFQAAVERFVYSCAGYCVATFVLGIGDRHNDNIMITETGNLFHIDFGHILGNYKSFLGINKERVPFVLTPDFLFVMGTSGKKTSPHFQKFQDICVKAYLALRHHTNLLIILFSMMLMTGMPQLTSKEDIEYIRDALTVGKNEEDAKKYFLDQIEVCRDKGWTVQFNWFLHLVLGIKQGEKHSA
Assay: TR-FRET enzymatic activity assay against PI3K isoforms
Conditions: 2×Km ATP, 30 minutes at 25° C.
measurementKind: IC50 (nM)

# structureAsSmiles, measurementKind, reportedValue
records = [
    ("N#Cc1c(N)nc(N)nc1N[C@H](c1nc2cccc(Cl)c2c(=O)n1CCCNC1COC1)C1CC1", "IC50", 280),
    ("CS(=O)(=O)CCCn1c([C@@H](Nc2nc(N)nc(N)c2C#N)C2CC2)nc2c(Cl)cc(F)cc2c1=O", "IC50", 1900),
    ("C[C@H](Nc1nc(N)nc(N)c1C#N)c1nc2cccc(Cl)c2c(=O)n1CCCNCc1ccccc1", "IC50", 1700),
    ("C[C@H](Nc1nc(N)nc(N)c1C#N)c1nc2cccc(Cl)c2c(=O)n1CCCN1CCOCC1", "IC50", 720),
    ("CC[C@H](Nc1nc(N)nc(N)c1C#N)c1nc2cccc(Cl)c2c(=O)n1CCCCC#N", "IC50", 540),
    ("N#Cc1c(N)nc(N)nc1N[C@H](c1nc2cccc(Cl)c2c(=O)n1CCCNC1CCC(F)(F)CC1)C1CC1", "IC50", 540),
    ("C[C@H](Nc1nc(N)nc(N)c1C#N)c1nc2cccc(Cl)c2c(=O)n1CCC(=O)N(C)C", "IC50", 280),
]

====

Molecular target: PI3Kβ (Homo sapiens (Human), UniProt P42338)
Assay: TR-FRET enzymatic activity assay against PI3K isoforms
Conditions: PI3Kβ, TR-FRET, 2×Km ATP, 30 minutes at 25° C.
pIC50: −log10 of the molar value.
# key: entry, value: pIC50
measurementKind: pIC50

# molecule, measurementKind, reportedValue
measured = [
    ("C[C@H](Nc1nc(N)nc(N)c1C#N)c1nc2cccc(Cl)c2c(=O)n1CCC#N", "pIC50", 7.24),
    ("COCCCn1c([C@H](C)Nc2nc(N)nc(N)c2C#N)nc2c(Cl)ccc(Cl)c2c1=O", "pIC50", 7.09),
    ("C[C@H](Nc1nc(N)nc(N)c1C#N)c1nc2cccc(Cl)c2c(=O)n1[C@H]1C[C@@H](O)C1", "pIC50", 8.40),
    ("N#Cc1c(N)nc(N)nc1N[C@H](c1nc2cccc(Cl)c2c(=O)n1CCCNC1CCC(F)(F)CC1)C1CC1", "pIC50", 8.40),
    ("CC[C@H](Nc1nc(N)nc(N)c1C#N)c1nc2cccc(Cl)c2c(=O)n1CCCCC#N", "pIC50", 6.82),
    ("C[C@H](Nc1ncnc(N)c1C#N)c1nc2cccc(Cl)c2c(=O)n1CCCN", "pIC50", 7.68),
    ("CC(CCO)n1c([C@H](C)Nc2ncnc(N)c2C#N)nc2cccc(Cl)c2c1=O (stereo partly shown)", "pIC50", 6.59),
    ("N#CCCCn1c([C@@H](Nc2nc(N)nc(N)c2C#N)C2CC2)nc2cccc(Cl)c2c1=O", "pIC50", 7.77),
    ("Cc1ncnc(N[C@@H](C)c2nc3cccc(Cl)c3c(=O)n2CCCN)c1C#N", "pIC50", 7.05),
    ("C[C@H](Nc1nc(N)nc(N)c1C#N)c1nc2cccc(Cl)c2c(=O)n1C[C@@H]1CCNC1", "pIC50", 7.62),
    ("C[C@H](Nc1nc(N)nc(N)c1C#N)c1nc2cccc(Cl)c2c(=O)n1Cc1cc[nH]n1", "pIC50", 7.34),
    ("C[C@H](Nc1ncnc2[nH]cnc12)c1nc2cccc(Cl)c2c(=O)n1CCCN1CCOCC1", "pIC50", 5.89),
    ("C[C@H](Nc1ncnc(N)c1C#N)c1nc2cccc(Cl)c2c(=O)n1CCN1CCCC1", "pIC50", 6.00),
    ("C[C@H](Nc1ncnn2ccnc12)c1nc2cccc(Cl)c2c(=O)n1CCCN", "pIC50", 6.62),
    ("Cc1cccc2nc([C@H](C)Nc3ncnc(N)c3C#N)n(CCCN)c(=O)c12", "pIC50", 7.33),
    ("COCCCn1c([C@H](C)Nc2ncnc(N)c2C#N)nc2cccc(Cl)c2c1=O", "pIC50", 6.09),
]

====

Biological target: PI3Kβ (Homo sapiens (Human), UniProt P42338)
Experiment: TR-FRET enzymatic activity assay against PI3K isoforms
Conditions: PI3Kβ, TR-FRET, 2×Km ATP, 30 minutes at 25° C.
pIC50: −log10 of the molar value.
# key: entry, value: pIC50
measurementKind: pIC50

# compound, targetSystem, reportedValue
rows = [
    ("C[C@H](Nc1nc(N)nc(N)c1C#N)c1nc2cccc(Cl)c2c(=O)n1N(C)CCN [Compound 15]", "PI3Kβ (Homo sapiens (Human), UniProt P42338)", 8.70),
    ("C[C@H](Nc1ncnc2scnc12)c1nc2cccc(Cl)c2c(=O)n1CCCN", "PI3Kβ (Homo sapiens (Human), UniProt P42338)", 7.46),
    ("NCCCn1c([C@@H](Nc2ncnc3scnc23)C2CC2)nc2cccc(Cl)c2c1=O", "PI3Kβ (Homo sapiens (Human), UniProt P42338)", 8.15),
    ("N#Cc1c(Cl)nc(N)nc1N[C@H](c1nc2cccc(Cl)c2c(=O)n1CCCN)C1CC1", "PI3Kβ (Homo sapiens (Human), UniProt P42338)", 8.10),
]

====

Biological target: PI3Kγ (Homo sapiens (Human))
Test: TR-FRET enzymatic activity assay against PI3K isoforms
Settings: 2×Km ATP, 30 minutes at 25° C.
measurementKind: IC50

# compound, measurementKind, reportedValue
data = [
    ("C[C@H](Nc1ncnc(N)c1C#N)c1nc2cccc(Cl)c2c(=O)n1CCCN1CCCCC1", "IC50", "≥ 10 µM"),
    ("CC[C@H](Nc1ncnc(N)c1C#N)c1nc2cccc(Cl)c2c(=O)n1CCCN", "IC50", "≥ 10 µM"),
    ("C[C@H](Nc1nc(N)nc(N)c1C#N)c1nc2cccc(Cl)c2c(=O)n1N(CCN)Cc1ccccc1 [Compound 9]", "IC50", "≥ 10 µM"),
]

====

Target: PI3Kβ (Homo sapiens (Human))
Experiment: TR-FRET enzymatic activity assay against PI3K isoforms
Conditions: PI3Kβ, TR-FRET, 2×Km ATP, 30 minutes at 25° C.
pIC50: −log10 of the molar value.
# key: entry, value: pIC50

# structureAsSmiles, pIC50
records = [
    ("CCOCCn1c([C@H](C)Nc2nc(N)nc(N)c2C#N)nc2cccc(Cl)c2c1=O", 6.92),
    ("C[C@H](Nc1nc(N)nc(N)c1C#N)c1nc2cccc(Cl)c2c(=O)n1CCCN1CCOCC1", 6.89),
    ("C[C@H](Nc1ncnc(N)c1C#N)c1nc2cccc(Cl)c2c(=O)n1CC1CCNCC1", 6.82),
]

The reported measurements were obtained from patent US11021467B2.
